Test system: H9
assay_text: In vitro anti viral activity against HIV-1 in human H9 T-lymphoid cell culture by fixed cell immunofluorescence assay
Format: functional
recorded_endpoint: CIC (nM)
Report the value in nM with no unit label.

## Task Return CIC (reported value) for this compound: CC(C)(C)OC(=O)N[C@@H](Cc1ccc(OCCN2CCOCC2)cc1)[C@@H](O)C[C@@H](Cc1ccc(OCCN2CCOCC2)cc1)C(=O)NC1c2ccccc2C[C@H]1O (some centres undefined)
## Result 100

## Task Return CIC (reported value) for this compound: NC1N=CNc2c1ncn2[C@H]1CC[C@@H](CO)O1 (some centres undefined)
## Result 25000

## Task Return CIC (reported value) for this compound: CC(C)(C)OC(=O)N[C@@H](Cc1ccccc1)[C@@H](O)C[C@@H](Cc1ccc(OCCCN2CCOCC2)cc1)C(=O)NC1c2ccccc2C[C@H]1O (some centres undefined)
## Result 200

## Task Return CIC (reported value) for this compound: `CC(C)(C)OC(=O)N[C@@H](Cc1ccccc1)[C@@H](O)C[C@@H](Cc1ccc(OCCN2CCOCC2)cc1)C(=O)N[C@H]1c2ccccc2C[C@H]1O`
## Result 12

====

For each of the molecules below, state its I/C.
tested_system: Human immunodeficiency virus type 1 protease (Human immunodeficiency virus 1) (UniProt Q72874)
assay_text: Ratio of inhibitory activity on HIV-1 protease (IC50) to antiviral activity against HIV-1 in human H9 T-lymphoid cell-ELISA assay(CIC)
Assay type: functional, cell-based

## Task Return I/C (reported value) for this molecule: CC(C)(C)OC(=O)N[C@@H](Cc1ccc(OCCN2CCOCC2)cc1)[C@@H](O)C[C@@H](Cc1ccccc1)C(=O)NC1c2ccccc2C[C@H]1O (stereo partly drawn)
## Result 0.011

## Task Return I/C (reported value) for this molecule: CC(C)(C)OC(=O)N[C@@H](Cc1ccccc1)[C@@H](O)C[C@@H](Cc1ccc(OCC(=O)N2CCOCC2)cc1)C(=O)NC1c2ccccc2C[C@H]1O (stereo partly drawn)
## Result 0.004

## Task Return I/C (reported value) for this molecule: CC(C)(C)OC(=O)N[C@@H](Cc1ccc(O)cc1)[C@@H](O)C[C@@H](Cc1ccc(O)cc1)C(=O)NC1c2ccccc2C[C@H]1O (stereo partly drawn)
## Result 0.0002

## Task Return I/C (reported value) for this molecule: CC(C)(C)OC(=O)N[C@@H](Cc1ccc(O)cc1)[C@@H](O)C[C@@H](Cc1ccccc1)C(=O)NC1c2ccccc2C[C@H]1O (stereo partly drawn)
## Result 0.007

## Task Return I/C (reported value) for this molecule: CC(C)(C)OC(=O)N[C@@H](Cc1ccccc1)[C@@H](O)C[C@@H](Cc1ccc(OCc2ccccc2)cc1)C(=O)NC1c2ccccc2C[C@H]1O (stereo partly drawn)
## Result 0.0036

## Task Return I/C (reported value) for this molecule: CC(C)(C)OC(=O)N[C@@H](Cc1ccccc1)[C@@H](O)C[C@@H](Cc1ccc(OCCN2CCS(=O)(=O)CC2)cc1)C(=O)NC1c2ccccc2C[C@H]1O (stereo partly drawn)
## Result 0.0008

## Task Return I/C (reported value) for this molecule: `CC(C)(C)OC(=O)N[C@@H](Cc1ccccc1)[C@@H](O)C[C@@H](Cc1ccccc1)C(=O)N[C@H]1c2ccccc2C[C@H]1O`
## Result 0.0009

## Task Return I/C (reported value) for this molecule: CC(C)(C)OC(=O)N[C@@H](Cc1ccccc1)[C@@H](O)C[C@@H](Cc1ccc(OCCN2CCCCC2)cc1)C(=O)NC1c2ccccc2C[C@H]1O (stereo partly drawn)
## Result 0.004

## Task Return I/C (reported value) for this molecule: CN(C)CCOc1ccc(C[C@H](C[C@H](O)[C@H](Cc2ccccc2)NC(=O)OC(C)(C)C)C(=O)NC2c3ccccc3C[C@H]2O)cc1 (stereo partly drawn)
## Result 0.0025

## Task Return I/C (reported value) for this molecule: CC(C)(C)OC(=O)N[C@@H](Cc1ccccc1)[C@@H](O)C[C@@H](Cc1ccc(OCCO)cc1)C(=O)NC1c2ccccc2C[C@H]1O (stereo partly drawn)
## Result 0.0018

## Task Return I/C (reported value) for this molecule: CC(C)(C)OC(=O)N[C@@H](Cc1ccccc1)[C@@H](O)C[C@@H](Cc1ccc(OCC[N+]2([O-])CCOCC2)cc1)C(=O)NC1c2ccccc2C[C@H]1O (stereo partly drawn)
## Result 0.002

## Task Return I/C (reported value) for this molecule: CC(C)(C)OC(=O)N[C@@H](Cc1ccccc1)[C@@H](O)CC(Cc1ccc(OCC(=O)O)cc1)C(=O)NC1c2ccccc2C[C@H]1O (stereo partly drawn)
## Result < 0.0001

## Task Return I/C (reported value) for this molecule: CC(C)(C)OC(=O)N[C@@H](Cc1ccccc1)[C@@H](O)C[C@@H](Cc1ccc(OCCCN2CCOCC2)cc1)C(=O)NC1c2ccccc2C[C@H]1O (stereo partly drawn)
## Result 0.01

====

System: H9
assay_text: In vitro anti viral activity against HIV-1 in human H9 T-lymphoid cell culture by fixed cell immunofluorescence assay
Type: functional
For each of the compounds below, state its CIC.
Report the value in nM with no unit label.

## Task Return CIC (reported value) for this compound: `CC(C)(C)OC(=O)N[C@@H](Cc1ccccc1)[C@@H](O)C[C@@H](Cc1ccccc1)C(=O)N[C@H]1c2ccccc2C[C@H]1O`
## Result 400

## Task Return CIC (reported value) for this compound: CC(C)(C)OC(=O)N[C@@H](Cc1ccc(OCCN2CCOCC2)cc1)[C@@H](O)C[C@@H](Cc1ccccc1)C(=O)NC1c2ccccc2C[C@H]1O (stereo partly specified)
## Result 50

## Task Return CIC (reported value) for this compound: CC(C)(C)OC(=O)N[C@@H](Cc1ccccc1)[C@@H](O)C[C@@H](Cc1ccc(OCCN2CC[S+]([O-])CC2)cc1)C(=O)NC1c2ccccc2C[C@H]1O (stereo partly specified)
## Result 200

## Task Return CIC (reported value) for this compound: COCCN(CCOC)CCOc1ccc(C[C@H](C[C@H](O)[C@H](Cc2ccccc2)NC(=O)OC(C)(C)C)C(=O)NC2c3ccccc3C[C@H]2O)cc1 (stereo partly specified)
## Result 50

## Task Return CIC (reported value) for this compound: CN(C)CCOc1ccc(C[C@H](C[C@H](O)[C@H](Cc2ccccc2)NC(=O)OC(C)(C)C)C(=O)NC2c3ccccc3C[C@H]2O)cc1 (stereo partly specified)
## Result 400

## Task Return CIC (reported value) for this compound: CC(C)(C)OC(=O)N[C@@H](Cc1ccccc1)[C@@H](O)C[C@@H](Cc1ccc(OCCN2CCCCC2)cc1)C(=O)NC1c2ccccc2C[C@H]1O (stereo partly specified)
## Result 400

====

tested_system: Human immunodeficiency virus type 1 protease (Human immunodeficiency virus 1) (UniProt Q72874)
assay_text: Ratio of inhibitory activity on HIV-1 protease (IC50) to antiviral activity against HIV-1 in human H9 T-lymphoid cell-ELISA assay(CIC)
Assay type: functional, cell-based
recorded_endpoint: I/C
// response body must contain only the number

## Task Return I/C (reported value) for this molecule: CC(C)(C)OC(=O)N[C@@H](Cc1ccccc1)[C@@H](O)C[C@@H](Cc1ccc(OCCN2CCSCC2)cc1)C(=O)NC1c2ccccc2C[C@H]1O (stereo partly drawn)
## Result 0.0094

## Task Return I/C (reported value) for this molecule: `CC(C)(C)OC(=O)N[C@@H](Cc1ccccc1)[C@@H](O)C[C@@H](Cc1ccc(OCCN2CCOCC2)cc1)C(=O)N[C@H]1c2ccccc2C[C@H]1O`
## Result 0.038

## Task Return I/C (reported value) for this molecule: CC(C)(C)OC(=O)N[C@@H](Cc1ccccc1)[C@@H](O)C[C@@H](Cc1ccc(OCCN2CC[S+]([O-])CC2)cc1)C(=O)NC1c2ccccc2C[C@H]1O (stereo partly drawn)
## Result 0.00035

====

tested_system: Human immunodeficiency virus type 1 protease (Human immunodeficiency virus 1, UniProt Q72874)
assay_text: In vitro enzyme inhibitory activity against HIV-1 protease.
Output y for records whose IC50 is lower than 1 nM, n for records at or above 1 nM.

## Task In the record for CC(C)(C)OC(=O)N[C@@H](Cc1ccccc1)[C@@H](O)C[C@@H](Cc1ccc(OCCN2CC[S+]([O-])CC2)cc1)C(=O)NC1c2ccccc2C[C@H]1O (stereo partly specified) , is IC50 less than 1 nM?
## Result y

## Task In the record for CN1CCN(CCOc2ccc(C[C@H](C[C@H](O)[C@H](Cc3ccccc3)NC(=O)OC(C)(C)C)C(=O)NC3c4ccccc4C[C@H]3O)cc2)CC1 (stereo partly specified) , is IC50 less than 1 nM?
## Result y

## Task In the record for `CC(C)(C)OC(=O)N[C@@H](Cc1ccccc1)[C@@H](O)C[C@@H](Cc1ccc(O)cc1)C(=O)N[C@H]1c2ccccc2C[C@H]1O` , is IC50 less than 1 nM?
## Result y

## Task In the record for CC(C)(C)OC(=O)N[C@@H](Cc1ccc(OCCN2CCOCC2)cc1)[C@@H](O)C[C@@H](Cc1ccc(OCCN2CCOCC2)cc1)C(=O)NC1c2ccccc2C[C@H]1O (stereo partly specified) , is IC50 less than 1 nM?
## Result n

## Task In the record for CC(C)(C)OC(=O)N[C@@H](Cc1ccccc1)[C@@H](O)C[C@@H](Cc1ccc(OCCN2CCCC2)cc1)C(=O)NC1c2ccccc2C[C@H]1O (stereo partly specified) , is IC50 less than 1 nM?
## Result n
